# key: entry, value: glycan array binding signal (z-score)
Biological target: Neu5Ac(a2-3)Gal(b1-3)GlcNAc(b1-6)GalNAc
Test: glycan array binding signal (z-score within array); higher = stronger binding
Conditions: glycan notation: IUPAC condensed, linker removed
About 410 targets per protein were measured; listed, in parts, are those with the strongest signals and a random draw of the rest.
Please give the numeric answer without any surrounding text.

1) FimA-N1 (Actinomyces oris) (protein) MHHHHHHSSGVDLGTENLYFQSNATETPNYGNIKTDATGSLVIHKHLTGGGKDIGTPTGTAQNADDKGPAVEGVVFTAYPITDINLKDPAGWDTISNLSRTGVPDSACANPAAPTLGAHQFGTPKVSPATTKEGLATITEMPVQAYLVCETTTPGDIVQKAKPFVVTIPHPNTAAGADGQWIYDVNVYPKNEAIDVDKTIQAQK    0.079
2) Als3-2 (Candida albicans) (protein) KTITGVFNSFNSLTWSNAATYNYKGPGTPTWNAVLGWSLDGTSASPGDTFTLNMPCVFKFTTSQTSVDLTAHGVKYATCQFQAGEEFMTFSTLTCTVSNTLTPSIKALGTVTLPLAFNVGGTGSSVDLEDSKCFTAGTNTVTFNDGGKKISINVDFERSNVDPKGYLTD    1.45
3) Epa1 (Candida glabrata) (protein) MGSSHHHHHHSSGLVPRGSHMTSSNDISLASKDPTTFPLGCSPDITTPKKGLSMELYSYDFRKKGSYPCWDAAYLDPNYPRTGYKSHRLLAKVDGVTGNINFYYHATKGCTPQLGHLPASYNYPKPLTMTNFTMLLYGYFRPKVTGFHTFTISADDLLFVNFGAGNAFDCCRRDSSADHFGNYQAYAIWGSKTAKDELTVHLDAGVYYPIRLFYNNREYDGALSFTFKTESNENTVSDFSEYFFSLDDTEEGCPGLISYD    -0.293
4) FimA-N3 (Actinomyces oris) (protein) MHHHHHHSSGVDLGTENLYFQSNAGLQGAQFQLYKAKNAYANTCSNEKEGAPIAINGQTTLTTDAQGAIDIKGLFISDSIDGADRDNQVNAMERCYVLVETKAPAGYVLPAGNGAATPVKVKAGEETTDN    0.038
5) SJCP3842 (Schistosoma japonicum) (protein) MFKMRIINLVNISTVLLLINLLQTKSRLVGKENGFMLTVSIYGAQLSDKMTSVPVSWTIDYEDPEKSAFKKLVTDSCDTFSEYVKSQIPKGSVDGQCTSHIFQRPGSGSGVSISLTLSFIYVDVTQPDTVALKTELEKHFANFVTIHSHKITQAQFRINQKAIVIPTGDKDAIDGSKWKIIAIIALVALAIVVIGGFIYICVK    1.36
6) CBP21 (Serratia marcescens), O83009 (protein) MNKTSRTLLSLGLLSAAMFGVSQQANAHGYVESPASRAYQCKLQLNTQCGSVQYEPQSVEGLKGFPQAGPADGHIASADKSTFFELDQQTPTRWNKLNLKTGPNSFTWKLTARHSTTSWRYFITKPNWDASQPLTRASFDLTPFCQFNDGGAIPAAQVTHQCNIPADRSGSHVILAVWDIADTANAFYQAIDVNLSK    0.458

Okay, now this binder:
Look up glycan array binding signal (z-score) of Epa11 (Candida glabrata) (protein) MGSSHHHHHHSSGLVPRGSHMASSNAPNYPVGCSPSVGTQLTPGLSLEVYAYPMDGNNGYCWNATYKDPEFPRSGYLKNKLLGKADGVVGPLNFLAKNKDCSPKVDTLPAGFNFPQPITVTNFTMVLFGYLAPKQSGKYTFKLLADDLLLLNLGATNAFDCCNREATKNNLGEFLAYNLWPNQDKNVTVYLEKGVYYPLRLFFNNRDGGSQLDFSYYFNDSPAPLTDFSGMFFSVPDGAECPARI and report it.
0.52
